Provenance of the data: patent EP4703388A1

Target: T1, cyno TF ECD-His (cTF-his) (monkey (cyno))
T1 construct: also called bio-cTF-his; monkey TF-His protein
T1 chain: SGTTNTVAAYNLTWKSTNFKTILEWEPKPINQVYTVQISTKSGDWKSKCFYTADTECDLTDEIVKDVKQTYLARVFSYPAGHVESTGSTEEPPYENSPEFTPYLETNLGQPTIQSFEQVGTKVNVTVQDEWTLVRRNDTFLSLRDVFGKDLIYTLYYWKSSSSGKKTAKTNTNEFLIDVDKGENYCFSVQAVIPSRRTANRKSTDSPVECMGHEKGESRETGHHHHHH
Assay: SPR Biacore T200, antibody on Protein A chip, TF-His as analyte, 1:1 model
Provide the reported koff of each item.
Write the number in s⁻¹ without appending the unit.

# input binder: hu67-16 (antibody, human IgG1, kappa, V domains shown) VH: EVQLQESGPGLVKPSQTLSLTCTVSGFSLTNYGVNWIRQPPRKGLEWIGVIWSRGNTDYNAAFISRVTISKDNSKSQVSLKLSSVTAADTAVYYCARKDAVVATDALDYWGQGTTVTVSS VL: DIQMTQSHKFLSASVGDRVTITCKASQDVSTAVAWYQQKPGKSPKLLIYSTSYRYTGVPSRFSGSGSGTDFTFTISSLQPEDIATYYCQQHYSTPYTFGGGTKVEIKR ; wanted: its koff
0.000478

GET /values?readout=koff&item= hu67-6 (antibody, human IgG1, kappa, V domains shown) VH: EVTLKQSGPVLVKPTQTLTLTCTVSGFSLTNYGVNWIRQPPRKGLEWLGVIWSRGNTDYNAAFISRLTISKDNSKSQVVLKMTNMDPVDTATYYCARKDAVVATDALDYWGQGTTVTVSS VL: DIVMTQSPKSLAVSLGERATINCKASQDVSTAVAWYQQKPGQSPKLLIYSTSYRYTGVPDRFSGSGSGTDFTFTISSLQAEDVAVYYCQQHYSTPYTFGGGTKVEIKR
0.000428

Consider the binder chimeric antibody CH310 (antibody, human IgG1, kappa, V domains shown, Murine 310# variable regions + human constant regions) VH: EVQLQQSGPELVKPGASLKISCKASGYSFTGYYMNWVKQSPEKSLEWIGEINPSTGGSTYNQKFKAKATLTVDQSSNTAYMQLKSLTSEDSAVYYCARRELGGPFGYWGQGTPVTVSA VL: SIVMTQTPKFLLVSSGDRVTITCKASQSVSNGIAWYQQKPGQSPKLLIYFASNRYTGVPDRFTGSGYGTDFTFTISTVQAEDLAVYFCQQDYSSPWTFGGGTKLEIKR and give its measured koff.
0.00767
